Values from PubChem BioAssay AID488975

- target.entity: High affinity choline transporter 1 (Homo sapiens)
- test.name: inhibitors of human choline transporter CHT (AID 488975)
- cond: CHT-expressing cells, membrane potential dye, choline response, at 10 µM
About 2,600 (0.84%) of roughly 310,000 compounds were called active.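 How the source made its calls: active means B-score over 3 SD under the library average, and starting fluorescence ratio not unusually high; inactive means the rest.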 The list comes from a sample in which actives are over-represented; it also holds close analogues and randomly drawn compounds.
Answer with one of the outcomes Yes for active, No for inactive

Data request: Give the logged outcome of this assay for the following molecule: `C/C(=N\NC(N)=S)c1cccnc1`
Data returned: Yes

Data request: What do you have for COc1ccc(C(C#N)(CC(=O)O)c2cnccn2)cc1OC (centres undefined) ?
Data returned: No

Data request: Repeat for the following molecule: `CCN(CC(=O)Nc1cc(Cl)ccc1C)C(=O)CSCc1ccc(C)cc1`
Data returned: No

Data request: Entry COc1ccc(S(=O)(=O)N2CCCCC2)cc1NC(=O)C1CC(=O)N(c2ccc3c(c2)OCCO3)C1 (centres undefined) please
Data returned: No

Data request: Now the molecule `CCN(CC(=O)NCc1ccc(Cl)cc1)C(=O)CSc1ccccc1`
Data returned: Yes

Data request: What would you report for `CS(=O)(=O)N1CCC(C(=O)N2CCN(c3ccccc3)CC2)CC1` ?
Data returned: No

Data request: And then CCCCN(C1CCS(=O)(=O)C1)S(=O)(=O)c1ccc(C(C)C)cc1 (centres undefined) , what is it?
Data returned: No

Data request: How about `COC(=O)[C@@]12CCCN1[C@H](c1ccc(-c3ccc(F)cc3)c(OC)c1)[C@H]1C(=O)N(C)C(=O)[C@H]12` ?
Data returned: No

Data request: How about this molecule: `C/C(=N\OCC(=O)O)c1ccc(Cl)cc1`
Data returned: No

Data request: Input `O=C(COC(=O)c1cc(S(=O)(=O)N2CCCCC2)ccc1Cl)NCc1ccco1`
Data returned: No

Data request: Repeat with `O=C(COc1ccc(Cl)cc1)N1CCN(c2cccc(C(F)(F)F)c2)CC1`
Data returned: No

Data request: Request: `COc1cc(C(=O)NCC(=O)N2CC=C(c3ccccc3)CC2)cc(OC)c1OC`
Data returned: No

Data request: Next up: `O=C(c1ccc(F)cc1)N1CCC(C(=O)N2CCN(S(=O)(=O)c3ccccc3Br)CC2)CC1`
Data returned: No

Data request: Entry `CCOC(=O)c1cc(C(C)C)sc1NC(=O)COC(=O)c1nccnc1N` please
Data returned: No

Data request: Thanks! And `CN(c1ccccc1)S(=O)(=O)c1ccc(Cl)c(C(=O)OCC(=O)NCc2ccco2)c1` ?
Data returned: No

Data request: Now the same for `CCc1cc2c(N3CCN(c4nnc(CC)s4)CC3)ncnc2s1`
Data returned: Yes

Data request: Lookup `Cc1ccccc1OCC(=O)NNC(=O)c1ccc(-n2cncn2)c([N+](=O)[O-])c1`
Data returned: No

Data request: Request: `CCc1cc2c(NC3CCCC3)ncnc2s1`
Data returned: No

Data request: Another molecule to look at: `CN(C)C1=NC[C@H](Cc2ccccc2)N1CCc1ccc(F)cc1`
Data returned: No

Data request: What do we get for `COC(=O)c1ccc(SCc2ccccc2)nc1` ?
Data returned: No

Data request: Would you kindly repeat that for CC(=O)CC(CC(=O)NC1CCCCC1)c1ccccc1 (centres undefined) ?
Data returned: No

Data request: What about `CCOCCCN(C)C1CCN(C(=O)c2oc3ccccc3c2NC(=O)COc2cccc(C)c2)CC1` ?
Data returned: Yes

Data request: Also `C/C(CCc1ccccc1)=N\NC(=O)c1ccc(CN2CCOCC2)cc1` ?
Data returned: No

Data request: Now the molecule `Cc1n[nH]c(=O)c2c(NC(=O)CSc3ccccc3F)oc(C)c12`
Data returned: No

Data request: Thanks! And `CCOCCCN(C)C1CCN(C(=O)c2oc3ccccc3c2NC(=O)Cc2cccc([N+](=O)[O-])c2)CC1` ?
Data returned: No

Data request: How about this molecule: `Oc1ccccc1N1CCN(c2ncnc3sc(-c4ccccc4)cc23)CC1`
Data returned: No

Data request: What do we get for `CCCCCC(=O)N1CCN(S(=O)(=O)c2ccc3c(c2)OCCCO3)CC1` ?
Data returned: No

Data request: Would you mind doing `CCn1c(SCCC(C)C)nnc1-c1c[nH]c2ccccc12` as well?
Data returned: Yes

Data request: Input `C/C(=N\NC(N)=S)c1ccncc1`
Data returned: No

Data request: Follow-up entry: COc1ccc(CCNC(=O)C(=O)NCC2CCCN2S(=O)(=O)c2cccs2)cc1OC (centres undefined)
Data returned: No

Data request: Another: CC1CCC(NC(=O)c2ccc(N3CCCC3=O)cc2)CC1 (centres undefined)
Data returned: No

Data request: And for `COCC(=O)Nc1c(C(=O)N2CCCC2)oc2ccccc12` ?
Data returned: No

Data request: Thanks! And CCC1Nc2ncnc(N3CCN(c4ccccc4)CC3)c2N(Cc2ccc(Cl)cc2)C1=O (centres undefined) ?
Data returned: No

Data request: Another molecule to check: `COc1ccccc1NC(=O)Nc1nc(CC(=O)Nc2ccccc2F)cs1`
Data returned: No

Data request: Param item: CCC(C)Sc1nnc(-c2c[nH]c3ccccc23)n1CCOC (centres undefined)
Data returned: No

Data request: Item: `C/C(=N\N=C(N)N)c1ccc(Cl)cc1`
Data returned: Yes

Data request: // next record `CCOc1ccc(NS(=O)(=O)c2ccc(C(=O)NC3CCN(Cc4ccccc4)CC3)cc2)cc1`
Data returned: No

Data request: Further, for `COc1ccc(S(=O)(=O)NCc2cccnc2)cc1NC(=O)c1ccc(C)cc1` ?
Data returned: No

Data request: Request: `COc1ccc(NC(=O)c2sc(N3CCOCC3)nc2-c2ccccc2)c(OC)c1`
Data returned: No

Data request: Entry to check: CC1CCCC(NC(=O)c2cccc(N3CCCC3=O)c2)C1C (centres undefined)
Data returned: Yes

Data request: Now consider `CN(CC(=O)NCc1ccc(Cl)cc1)S(=O)(=O)c1cccs1` and answer again.
Data returned: No

Data request: Try this molecule too: `C/C(=N\NC(=O)c1cccc(N2CCCC2=O)c1)c1ccc(N)cc1`
Data returned: No

Data request: Follow-up item: `C/C(=N\NC(=O)c1cccnc1)c1ccc(-c2ccccc2)cc1`
Data returned: No

Data request: Now give it for `Cc1cc(C(=O)OCC(=O)NCc2ccco2)c(C)n1-c1ccccc1` too.
Data returned: Yes

* * *

- target.entity: High affinity choline transporter 1 (Homo sapiens) (UniProt Q9GZV3)
- Sequence (Q9GZV3 whole entry, looked up): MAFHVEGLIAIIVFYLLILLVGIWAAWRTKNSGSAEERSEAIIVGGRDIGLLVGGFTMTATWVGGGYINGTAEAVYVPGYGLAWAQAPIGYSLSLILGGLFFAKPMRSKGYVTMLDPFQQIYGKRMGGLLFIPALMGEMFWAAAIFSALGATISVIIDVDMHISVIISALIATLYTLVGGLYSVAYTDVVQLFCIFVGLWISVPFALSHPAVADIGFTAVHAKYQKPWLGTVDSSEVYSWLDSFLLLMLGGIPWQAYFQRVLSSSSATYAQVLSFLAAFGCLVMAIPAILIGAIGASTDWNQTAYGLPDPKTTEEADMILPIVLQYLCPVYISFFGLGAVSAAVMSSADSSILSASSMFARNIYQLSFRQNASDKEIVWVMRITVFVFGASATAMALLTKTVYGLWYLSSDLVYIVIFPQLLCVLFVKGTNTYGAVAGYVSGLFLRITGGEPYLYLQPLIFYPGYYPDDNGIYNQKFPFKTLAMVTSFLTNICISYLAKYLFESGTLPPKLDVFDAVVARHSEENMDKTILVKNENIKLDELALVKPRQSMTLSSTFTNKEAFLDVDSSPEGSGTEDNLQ
- test.name: inhibitors of human choline transporter CHT (AID 488975)
- cond: CHT-expressing cells, membrane potential dye, choline response, at 10 µM
In all, about 310,000 compounds went through this assay and about 2,600 (0.84%) were called active.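 Rule for the calls: active = B-score over 3 SD under the library average, and starting fluorescence ratio not unusually high; inactive = the rest.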 This excerpt belongs to a sample that is enriched for actives.
Answer with one of the outcomes t for active, f for inactive

Data request: Hey, what did the test say about `O=C(/C=C/c1ccc([N+](=O)[O-])o1)NNC(=O)c1ccc(F)cc1` ?
Data returned: f

Data request: Repeat with `O=C(CCCN1C(=O)CSc2ncccc21)N1CCN(c2cccc(C(F)(F)F)c2)CC1`
Data returned: t

Data request: How about this compound: `O=C(CN1C(=O)CSc2ncccc21)N1CCOCC1`
Data returned: f

Data request: One more compound: `Cc1sc2nc(CSCC(=O)NC3CCCCC3)[nH]c(=O)c2c1C`
Data returned: f

Data request: Also `Cc1nc2sc3c(c2c(=O)n1NC(=O)CCl)CCCC3` , if possible.
Data returned: f

Data request: And what about the compound `O=C(Nc1ccc(C(=O)N2CCOCC2)cc1)Nc1cccc(C(F)(F)F)c1` ?
Data returned: f

* * *

- target.entity: High affinity choline transporter 1 (Homo sapiens)
- test.name: inhibitors of human choline transporter CHT (AID 488975)
- cond: CHT-expressing cells, membrane potential dye, choline response, at 10 µM
Out of some 310,000 compounds screened, about 2,600 (0.84%) were called active.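 Rule for the calls: active = B-score over 3 SD under the library average, and starting fluorescence ratio not unusually high; inactive = the rest.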 The full list was thinned out, with actives kept by preference.
Your answer must be one of the following: active, inactive

Data request: What classification did `O=C(Nc1cc(-c2ccccc2)nn1-c1ccccc1F)c1ccc([N+](=O)[O-])cc1` end up with in this test?
Data returned: inactive

Data request: Another molecule: COc1cccc(CC2(CO)CCCN(Cc3ccc(OC(F)F)cc3)C2)c1 (stereo unspecified)
Data returned: inactive

Data request: And then `O=C(NCCCn1ccnc1)Nc1ccc(Cl)cc1Cl` , what is it?
Data returned: inactive

Data request: Check `O=C(Nc1ccccc1C(=O)NCCCn1ccnc1)c1ccc(Cl)cc1Cl` too.
Data returned: active

Data request: Cool, now `CN1C(=O)/C(=C/c2ccc(C(=O)NC3CCCC3)cc2)Oc2ccccc21`
Data returned: inactive

Data request: Would you kindly repeat that for `Cn1cc([N+](=O)[O-])c(C(=O)Nc2cnn(Cc3ccc(F)cc3)c2)n1` ?
Data returned: inactive
